Items are presented alongside their recorded EC50.
TESTED SYSTEM: AHR (Homo sapiens)
Construct: endogenous in cells; host or cells: HepG2 (human), DRE-luciferase reporter stably or transiently transfected
Sequence (P35869 11-848): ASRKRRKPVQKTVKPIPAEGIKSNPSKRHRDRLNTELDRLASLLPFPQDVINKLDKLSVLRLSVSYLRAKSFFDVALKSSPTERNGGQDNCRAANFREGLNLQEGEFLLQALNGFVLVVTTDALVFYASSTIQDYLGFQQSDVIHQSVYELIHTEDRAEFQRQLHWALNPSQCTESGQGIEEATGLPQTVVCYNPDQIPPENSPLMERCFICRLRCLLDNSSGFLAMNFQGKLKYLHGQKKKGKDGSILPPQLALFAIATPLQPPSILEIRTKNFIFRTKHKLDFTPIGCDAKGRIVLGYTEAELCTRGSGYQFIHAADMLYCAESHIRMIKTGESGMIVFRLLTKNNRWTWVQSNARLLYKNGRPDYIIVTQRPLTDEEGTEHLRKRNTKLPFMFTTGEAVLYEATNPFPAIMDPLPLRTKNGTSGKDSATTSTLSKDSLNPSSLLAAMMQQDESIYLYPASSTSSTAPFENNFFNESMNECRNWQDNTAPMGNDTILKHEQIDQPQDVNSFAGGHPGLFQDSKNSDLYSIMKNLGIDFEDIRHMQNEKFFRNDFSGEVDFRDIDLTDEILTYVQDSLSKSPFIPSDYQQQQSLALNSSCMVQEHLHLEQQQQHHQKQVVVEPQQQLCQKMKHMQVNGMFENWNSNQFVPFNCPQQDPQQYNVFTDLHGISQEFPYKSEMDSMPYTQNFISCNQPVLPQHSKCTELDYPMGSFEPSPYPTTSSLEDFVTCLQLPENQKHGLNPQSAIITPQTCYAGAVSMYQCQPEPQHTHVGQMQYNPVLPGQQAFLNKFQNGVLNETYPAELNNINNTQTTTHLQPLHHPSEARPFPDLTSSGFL
EXPERIMENT NOTES: DRE-Luciferase Reporter Assay, HepG2, agonist
Format: cell-based
TEST CONTEXT: HepG2 cells, agonist mode, Table 2, read-out: DRE-Luc HepG2 - Agonist: Average EC50
Protocol: AHR binds to Dioxin Responsive Elements (DRE) upstream of genes that it activates. One measure of AHR activity is activation of a reporter gene, such as luciferase, downstream of one or multiple DRE elements. […] The next day, an AHR agonist compound is added. Cells are incubated for 6, 16 or 24 hours or another time point and then lysed for determination of luciferase activity as a read-out of the AHR activation. […]

Consider the reported EC50 for these molecules:
>>> result("Cc1sc(C(=O)c2c[nH]c3ccccc23)nc1C(=O)NCCOCCO [Compound I-29]")
"> 1 µM"
>>> result("COC(=O)c1csc(/C(=N\\O)c2c[nH]c3ccccc23)n1 [Compound P-13]")
"> 1 µM"
>>> result("Cc1sc(C(=O)c2c[nH]c3ccccc23)nc1C(=O)NCCOCCN(C)C [Compound I-17]")
"0.1 to 1 µM"
>>> result("COC(=O)c1csc(C(=O)c2c[nH]c3cc(OC)ccc23)n1 [Compound I-6]")
"0.1 to 1 µM"

Tell us which EC50 value is on record for COC(=O)c1coc(C(=O)c2c[nH]c3ccccc23)n1 [Compound P-19]
> 1 µM

Tell us which EC50 value is on record for C[N+](C)(C)CCOCCOC(=O)c1csc(C(=O)c2c[nH]c3ccccc23)n1 [Compound I-24]
> 1 µM

Tell us which EC50 value is on record for NC(=O)c1csc(C(=O)c2c[nH]c3ccccc23)n1 [Compound P-5]
0.01 to 0.1 µM

Tell us which EC50 value is on record for COC(=O)c1csc(C(=O)c2c[nH]c3ccc(O)cc23)n1 [Compound I-44]
> 1 µM

Tell us which EC50 value is on record for COC(=O)c1nc(C(=O)c2c[nH]c3cccc(C)c23)sc1C [Compound I-15]
0.1 to 1 µM

Tell us which EC50 value is on record for CC(C)c1sc(C(=O)c2c[nH]c3ccccc23)nc1C(=O)O [Compound I-32]
> 1 µM

Tell us which EC50 value is on record for COC(=O)c1nc(C(=O)c2c[nH]c3ccccc23)sc1C [Compound P-1]
< 0.01 µM

Tell us which EC50 value is on record for COC(=O)c1csc([C@H](O)c2c[nH]c3ccccc23)n1 [Compound P-14]
> 1 µM

Tell us which EC50 value is on record for CN(CCO)CCOC(=O)c1csc(C(=O)c2c[nH]c3ccccc23)n1 [Compound I-21]
> 1 µM

Tell us which EC50 value is on record for CN1CCN(C(=O)c2csc(C(=O)c3c[nH]c4ccccc34)n2)CC1 [Compound I-25]
> 1 µM

Tell us which EC50 value is on record for COC(=O)c1csc([C@@H](O)c2c[nH]c3ccccc23)n1 [Compound P-15]
> 1 µM

###

TESTED SYSTEM: AHR (Homo sapiens)
Construct: endogenous in cells; host or cells: HepG2 (human), DRE-luciferase reporter stably or transiently transfected
EXPERIMENT NOTES: DRE-Luciferase Reporter Assay, HepG2, agonist
Type: cell-based
TEST CONTEXT: HepG2 cells, agonist mode, Table 2, read-out: DRE-Luc HepG2 - Agonist: Average EC50
Procedure: AHR binds to Dioxin Responsive Elements (DRE) upstream of genes that it activates. One measure of AHR activity is activation of a reporter gene, such as luciferase, downstream of one or multiple DRE elements. […] The next day, an AHR agonist compound is added. Cells are incubated for 6, 16 or 24 hours or another time point and then lysed for determination of luciferase activity as a read-out of the AHR activation. […]
OBSERVABLE: EC50

>>> result("CO/N=C(\\c1nc(C(=O)OC)cs1)c1c[nH]c2ccccc12")
"100 to 1000 nM"
>>> result("O=C(O)c1coc(C(=O)c2c[nH]c3ccccc23)n1")
"> 1000 nM"
>>> result("O=C(OCCO)c1csc(C(=O)c2c[nH]c3ccccc23)n1")
"100 to 1000 nM"
>>> result("CN(C)C(=O)c1csc(C(=O)c2c[nH]c3ccccc23)n1")
"10 to 100 nM"
>>> result("COC(=O)c1cnc(C(=O)c2c[nH]c3ccccc23)n1C")
"> 1000 nM"
>>> result("COC(=O)c1nc(C(=O)c2c[nH]c3ccccc23)sc1C(C)C")
"> 1000 nM"

Lab note: AHR (Homo sapiens) assay, enter EC50 for O=C(O)COCCNC(=O)c1csc(C(=O)c2c[nH]c3ccccc23)n1 here
> 1000 nM

Lab note: AHR (Homo sapiens) assay, enter EC50 for COC(=O)c1csc(C(=O)c2cn(C)c3ccccc23)n1 here
> 1000 nM

Lab note: AHR (Homo sapiens) assay, enter EC50 for COC(=O)c1c[nH]c(C(=O)c2c[nH]c3ccccc23)n1 here
> 1000 nM
